SUBJECT_OF_TEST: Short transient receptor potential channel 3 (Homo sapiens)
Sequence (Q13507 whole entry): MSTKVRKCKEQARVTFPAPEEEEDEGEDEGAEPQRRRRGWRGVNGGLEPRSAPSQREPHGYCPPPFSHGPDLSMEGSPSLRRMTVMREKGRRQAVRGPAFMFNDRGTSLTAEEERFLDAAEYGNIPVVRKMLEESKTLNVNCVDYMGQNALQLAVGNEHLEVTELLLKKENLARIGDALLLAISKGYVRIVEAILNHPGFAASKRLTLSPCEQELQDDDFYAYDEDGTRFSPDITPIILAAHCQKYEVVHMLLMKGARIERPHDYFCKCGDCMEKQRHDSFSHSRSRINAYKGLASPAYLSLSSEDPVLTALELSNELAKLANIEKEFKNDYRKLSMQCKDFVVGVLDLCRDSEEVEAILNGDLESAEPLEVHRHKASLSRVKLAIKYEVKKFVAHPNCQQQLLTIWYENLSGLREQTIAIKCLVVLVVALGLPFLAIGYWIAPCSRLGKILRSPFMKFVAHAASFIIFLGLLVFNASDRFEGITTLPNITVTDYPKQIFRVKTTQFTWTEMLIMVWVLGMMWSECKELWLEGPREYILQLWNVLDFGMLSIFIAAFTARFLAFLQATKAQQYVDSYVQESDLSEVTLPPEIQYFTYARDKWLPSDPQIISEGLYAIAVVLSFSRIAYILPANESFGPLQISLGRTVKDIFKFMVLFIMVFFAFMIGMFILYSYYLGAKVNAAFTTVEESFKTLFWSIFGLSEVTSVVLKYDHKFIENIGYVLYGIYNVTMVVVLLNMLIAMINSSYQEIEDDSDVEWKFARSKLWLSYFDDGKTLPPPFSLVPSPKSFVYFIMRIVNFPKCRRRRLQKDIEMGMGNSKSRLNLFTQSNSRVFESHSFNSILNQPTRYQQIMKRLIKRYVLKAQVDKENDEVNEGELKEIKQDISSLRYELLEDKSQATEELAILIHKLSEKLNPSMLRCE
EXPERIMENT: Antagonist activity at human TRPC3 stably expressed in HEK293 cells inhibition of calcium influx by calcium fluorescence assay
Format: cell-based
PROPERTY_MEASURED: IC50 (nM)
One number for each entry, in nM.

# lookup: IC50 of "NCCN(Cc1ccc2ccccc2c1)c1nc(C(=O)Nc2ccc(O)cc2)cs1"
2400

---

SUBJECT_OF_TEST: Short transient receptor potential channel 6 (Mus musculus) (UniProt Q61143)
Sequence (whole entry): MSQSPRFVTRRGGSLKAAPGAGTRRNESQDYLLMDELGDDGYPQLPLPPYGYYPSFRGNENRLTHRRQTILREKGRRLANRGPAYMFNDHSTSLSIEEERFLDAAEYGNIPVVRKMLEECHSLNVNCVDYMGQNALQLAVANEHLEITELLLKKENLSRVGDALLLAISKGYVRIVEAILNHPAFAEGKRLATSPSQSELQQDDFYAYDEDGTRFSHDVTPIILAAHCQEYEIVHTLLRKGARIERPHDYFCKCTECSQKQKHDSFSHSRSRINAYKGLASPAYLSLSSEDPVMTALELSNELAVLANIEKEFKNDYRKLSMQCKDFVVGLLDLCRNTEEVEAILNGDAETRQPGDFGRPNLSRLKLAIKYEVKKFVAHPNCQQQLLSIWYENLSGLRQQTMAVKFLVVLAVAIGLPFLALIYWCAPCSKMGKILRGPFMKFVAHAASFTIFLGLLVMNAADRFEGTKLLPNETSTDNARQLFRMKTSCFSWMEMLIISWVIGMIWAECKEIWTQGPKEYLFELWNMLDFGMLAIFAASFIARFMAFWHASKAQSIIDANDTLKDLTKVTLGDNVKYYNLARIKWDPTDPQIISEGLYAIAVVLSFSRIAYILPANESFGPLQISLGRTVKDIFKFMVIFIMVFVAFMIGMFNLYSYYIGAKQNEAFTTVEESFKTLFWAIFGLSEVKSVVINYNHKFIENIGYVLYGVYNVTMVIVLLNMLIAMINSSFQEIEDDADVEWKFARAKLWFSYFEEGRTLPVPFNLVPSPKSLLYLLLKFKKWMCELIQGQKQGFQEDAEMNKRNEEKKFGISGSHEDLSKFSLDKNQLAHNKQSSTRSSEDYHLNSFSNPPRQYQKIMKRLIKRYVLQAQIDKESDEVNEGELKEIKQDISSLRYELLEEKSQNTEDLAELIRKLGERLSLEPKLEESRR
EXPERIMENT: Antagonist activity at mouse TRPC6 stably expressed in HEK293 cells assessed as inhibition of calcium influx at 10 uM by calcium fluorescence assay relative to control
Type: cell-based
ASSAY_CONTEXT: filed as antagonist
PROPERTY_MEASURED: inhibition

Reference set (5 entries):
COMPOUND_SMILES: CCOC(=O)c1csc(N(CCN)Cc2ccc(C(F)(F)F)cc2)n1
inhibition: 84.6%

COMPOUND_SMILES: CCN(CC)CCNC(=O)c1csc(N(CCN)Cc2cccc(C(F)(F)F)c2)n1
inhibition: 50.6%

COMPOUND_SMILES: CCOC(=O)c1csc(N(CCN)Cc2cc(F)ccc2Br)n1
inhibition: 59.5%

COMPOUND_SMILES: CCOC(=O)c1csc(N(CCN)Cc2ccc3ccccc3c2)n1
inhibition: 97.9%

COMPOUND_SMILES: CCOC(=O)c1csc(N(CCN)Cc2cccc(OC(F)F)c2)n1
inhibition: 40.9%

Each compound below has a recorded value; state its inhibition.
1. CCOC(=O)c1csc(N(CCN)Cc2ccc3cc(Br)ccc3c2)n1
2. NCCN(Cc1cccc(C(F)(F)F)c1)c1nc(C(=O)NCCc2ccccc2)cs1

1: 56.8%; 2: 81.9%

Each compound below has a recorded value; state its inhibition.
1. CCOC(=O)c1csc(N(CCN)C(=O)c2ccc(C(F)(F)F)cc2)n1
2. COc1cccc2sc(N(CCN(C)C)C(=O)c3ccc4c(c3)CCCC4)nc12
3. CCN(CC)CCNC(=O)c1csc(N(CCN)Cc2ccc3ccccc3c2)n1
4. CCOC(=O)c1csc(N(CCN)Cc2cccc(C(F)(F)F)c2)n1

1. 44.2%
2. 84.8%
3. 53.3%
4. 92.2%
